assay: Cell Viability - LYMP2-001 (AID 921); settings: LYMP2-001 lymphoblastoid cell viability; series mostly up to 92.2 µM;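 further: cells exposed to compound for 24 h at 37 °C; nearly all actives have a fitted effect of over 70% in size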
Results filed as inconclusive are left out. Calls of active or inactive are those of the source. The call rests on the fitted dose curve; in most records, active means well fitted cell-killing curve with a large enough effect; inconclusive means small, poorly fitted or top-dose-only effect; inactive means no such curve, though single readings can be large or run the other way.
Bench note: report the call from 1 (active), 0 (inactive)

Example cases with answers are listed next.
C[C@H]1O[C@@H](O[C@H]2[C@@H](O)C[C@H](O[C@H]3[C@@H](O)C[C@H](O[C@H]4CC[C@@]5(C)[C@H](CC[C@@H]6[C@@H]5C[C@@H](O)[C@]5(C)[C@@H](C7=CC(=O)OC7)CC[C@]65O)C4)O[C@@H]3C)O[C@@H]2C)C[C@H](O)[C@@H]1O :: 1
c1ccc2ccccc2c1 :: 0

Could you check what this test reported for `CO` ?
0

Which outcome did this test record for the compound `OC[C@H]1O[C@@H]2O[C@H]3[C@H](O)[C@@H](O)[C@@H](O[C@H]4[C@H](O)[C@@H](O)[C@@H](O[C@H]5[C@H](O)[C@@H](O)[C@@H](O[C@H]6[C@H](O)[C@@H](O)[C@@H](O[C@H]7[C@H](O)[C@@H](O)[C@@H](O[C@H]1[C@H](O)[C@H]2O)O[C@@H]7CO)O[C@@H]6CO)O[C@@H]5CO)O[C@@H]4CO)O[C@@H]3CO` ?
0

Outcome logged for `Cc1ncc[nH]1` in this assay:
0
